Reported IC50 is given for each of the following molecules.
- tested system: full-length human PRMT6 (Flag- and His-tagged) (Homo sapiens, UniProt Q96LA8)
- Sequence (Q96LA8 with tags, fused parts or gaps): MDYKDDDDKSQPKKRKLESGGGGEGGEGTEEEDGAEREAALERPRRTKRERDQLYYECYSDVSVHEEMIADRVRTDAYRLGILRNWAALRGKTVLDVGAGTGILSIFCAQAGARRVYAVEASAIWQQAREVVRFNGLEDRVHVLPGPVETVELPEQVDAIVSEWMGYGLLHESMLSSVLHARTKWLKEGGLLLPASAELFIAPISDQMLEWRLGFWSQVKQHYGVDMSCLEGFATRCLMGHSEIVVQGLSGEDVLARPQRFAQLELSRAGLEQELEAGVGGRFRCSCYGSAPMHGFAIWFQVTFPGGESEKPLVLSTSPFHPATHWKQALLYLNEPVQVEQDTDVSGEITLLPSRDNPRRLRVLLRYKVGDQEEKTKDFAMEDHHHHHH
- protocol details: PRMT6 Biochemical Assay (3H-SAM Flashplate, peptide substrate)
- run parameters: read-out: Biochemical IC50 PRMT6

Consider the following illustrative entries.
>>> result("CNCCN(C)Cc1c[nH]nc1C1CCCC(COCCOC)C1 (centres unmarked) [Compound 112]")
"< 100 nM"
>>> result("CNCCN(C)Cc1c[nH]nc1[C@H]1CC[C@H](N(CCOC)C(=O)CC(C)C)CC1 [Compound 252]")
"< 100 nM"
>>> result("CNCCN(C)Cc1c[nH]nc1C1CCC(C(C)C)CC1 (centres unmarked) [Compound 50]")
"< 100 nM"
>>> result("CNCCN(C)Cc1c[nH]nc1C1CCC(C)(C)[C@H](OCCCOC)C1 (some centres unmarked) [Compound 272]")
"< 100 nM"
>>> result("CNCCN(C)Cc1c[nH]nc1C1CCC2(CC1)OCCO2 [Compound 177]")
"101 to 1000 nM"

I am curious: what IC50 value has been reported for CNCCN(C)Cc1c[nH]nc1C1CCC(C)(C)C(C(=O)NCC(C)C)C1 (centres unmarked) [Compound 90] ?
101 to 1000 nM

I am curious: what IC50 value has been reported for CNCCN(C)Cc1c[nH]nc1[C@H]1CC[C@H](N(CCOc2ccccc2)C(=O)CCCOC)CC1 [Compound 229] ?
< 100 nM

I am curious: what IC50 value has been reported for CNCCN(C)Cc1c[nH]nc1C1CCC2(CC1)CCN(CCC(C)C)C2=O (centres unmarked) [Compound 163] ?
< 100 nM

I am curious: what IC50 value has been reported for CNCCN(C)Cc1c[nH]nc1C1CCC(=O)N(CCCOC)C1 (centres unmarked) [Compound 190] ?
101 to 1000 nM

I am curious: what IC50 value has been reported for CNCCN(C)Cc1c[nH]nc1C1CCC(N(CC(C)C)C(=O)CC2CCOCC2)CC1 (centres unmarked) [Compound 114] ?
< 100 nM

###

- tested system: full-length human PRMT1 isoform 1 (GST-tagged) (Homo sapiens, UniProt Q99873)
- Sequence (Q99873 with tags, fused parts or gaps): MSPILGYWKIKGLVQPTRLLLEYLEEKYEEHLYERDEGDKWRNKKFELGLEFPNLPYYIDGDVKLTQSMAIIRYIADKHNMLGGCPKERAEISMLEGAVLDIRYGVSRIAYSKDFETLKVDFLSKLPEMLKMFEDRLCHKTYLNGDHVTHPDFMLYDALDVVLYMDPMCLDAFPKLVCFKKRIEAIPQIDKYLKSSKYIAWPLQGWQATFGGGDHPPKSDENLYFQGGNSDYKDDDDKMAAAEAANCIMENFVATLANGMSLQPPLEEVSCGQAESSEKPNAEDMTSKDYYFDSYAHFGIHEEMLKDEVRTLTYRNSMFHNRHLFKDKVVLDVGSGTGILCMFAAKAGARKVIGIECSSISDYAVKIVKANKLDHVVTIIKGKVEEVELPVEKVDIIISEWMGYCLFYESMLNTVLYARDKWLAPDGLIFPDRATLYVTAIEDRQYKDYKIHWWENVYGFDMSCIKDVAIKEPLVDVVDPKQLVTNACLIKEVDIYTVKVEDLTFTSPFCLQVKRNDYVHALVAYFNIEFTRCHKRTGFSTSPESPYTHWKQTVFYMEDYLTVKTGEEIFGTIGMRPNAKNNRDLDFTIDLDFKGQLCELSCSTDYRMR
- protocol details: PRMT1 Biochemical Assay (3H-SAM Flashplate, peptide substrate)
- run parameters: single experiment or average of multiple experiments
pIC50: −log10 of the molar value.
measure: pIC50

Consider the following illustrative entries.
>>> measured_number("CNCCN(C)Cc1c[nH]nc1[C@H]1CC[C@@H](C(C)C)CC1")
8.33
>>> measured_number("CNCCN(C)Cc1c[nH]nc1C1CCC2(CCCCC2)CC1")
8.10
>>> measured_number("CNCCN(C)Cc1c[nH]nc1C1CCN(C(=O)Cc2ccccc2)CC1")
7.70
>>> measured_number("CNCCN(C)Cc1c[nH]nc1[C@H]1CCC(C)(C)[C@@H](C(=O)NCCOC)C1")
7.16
>>> measured_number("CNCCN(C)Cc1c[nH]nc1[C@H]1CC[C@@]2(CCN(CC(C)C)C2=O)CC1")
7.63
>>> measured_number("CNCCN(C)Cc1c[nH]nc1C1CC(C)OC(C)C1 (stereo not drawn)")
7.80
>>> measured_number("CNCCN(C)Cc1c[nH]nc1C1CCC2(CC1)CN(C)C(=O)N2CC(C)C (stereo not drawn)")
7.43
>>> measured_number("CNCCN(C)Cc1c[nH]nc1[C@H]1CC[C@@]2(CCC(C)(C)O2)CC1")
7.69

[I] CNCCN(C)Cc1c[nH]nc1C1C[C@H](C(=O)N(C)CC(C)C)C(C)(C)[C@H](C(=O)N(C)CC(C)C)C1 (stereo partly drawn)
[II] CNCCN(C)Cc1c[nH]nc1[C@H]1CC[C@@H](OC2CCCCC2)CC1
[III] CNCCN(C)Cc1c[nH]nc1[C@H]1CC[C@]2(CCOC2)CC1
[IV] CNCCN(C)Cc1c[nH]nc1[C@H]1CC[C@H](C(=O)N(C)CC(C)C)CC1
[V] CNCCN(C)Cc1c[nH]nc1C1CC(COC)C(C)(C)C(COC)C1 (stereo not drawn)
Task field, ranking: reported pIC50, descending order. Hello, could you send the labels back in the order asked? Thank you.
III, II, IV, V, I
(III: 8.14, II: 7.81, IV: 7.48, V: 5.71, I: 5.46)

[A] CNCCN(C)Cc1c[nH]nc1[C@H]1CC[C@]2(CCN(Cc3ccc(OCCOC)cc3)C2=O)CC1
[B] CNCCN(C)Cc1c[nH]nc1[C@H]1CC[C@H](C(=O)N(CCCOC)CCC(C)C)CC1
// compare: A vs B , metric pIC50, want the smaller Give the label of your selection.
B

[a] CNCCN(C)Cc1c[nH]nc1C1CCC2(CC1)CC(=O)N(CCC(C)C)C2 (stereo not drawn)
[b] CNCCN(C)Cc1c[nH]nc1[C@H]1CC[C@]2(CCOC2(C)C)CC1
Between these two entries, a and b , state which has the higher pIC50. Give the label of your selection.
b

###

- tested system: full-length human PRMT8 isoform 1 (Homo sapiens)
- Sequence (Q9NR22 whole entry, canonical isoform): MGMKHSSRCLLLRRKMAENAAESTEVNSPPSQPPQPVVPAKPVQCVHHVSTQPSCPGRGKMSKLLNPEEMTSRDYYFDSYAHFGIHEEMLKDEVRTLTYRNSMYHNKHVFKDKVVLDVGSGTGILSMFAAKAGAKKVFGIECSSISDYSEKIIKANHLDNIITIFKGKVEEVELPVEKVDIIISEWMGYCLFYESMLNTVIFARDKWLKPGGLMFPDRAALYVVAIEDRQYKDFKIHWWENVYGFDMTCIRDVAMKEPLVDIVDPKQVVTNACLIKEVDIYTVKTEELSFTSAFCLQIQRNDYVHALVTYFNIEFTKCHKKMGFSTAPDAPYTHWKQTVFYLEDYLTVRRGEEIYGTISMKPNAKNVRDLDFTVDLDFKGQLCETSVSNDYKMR
- protocol details: PRMT8 Biochemical Assay (3H-SAM Flashplate, peptide substrate)
- run parameters: read-out: Biochemical IC50 PRMT8
Reported IC50 is given for each of the following compounds.

>>> result("CNCCN(C)Cc1c[nH]nc1[C@H]1CC[C@@]2(CCN(Cc3ccc(F)cc3)C2=O)CC1")
"< 0.1 µM"
>>> result("CNCCN(C)Cc1c[nH]nc1C1CCC(=O)N(Cc2ccc(C(F)(F)F)cc2)C1 (stereo not drawn)")
"0.101 to 1 µM"
>>> result("CCC(CC)OC1CCC(c2n[nH]cc2CN(C)CCNC)CC1 (stereo not drawn)")
"< 0.1 µM"
>>> result("CNCCN(C)Cc1c[nH]nc1C1CCC(=O)N(CCC(C)C)C1 (stereo not drawn)")
"0.101 to 1 µM"
>>> result("CNCCN(C)Cc1c[nH]nc1[C@H]1CC[C@]2(CCN(CC(C)C)C2=O)CC1")
"< 0.1 µM"

I am curious: what IC50 value has been reported for CNCCN(C)Cc1c[nH]nc1C1CCC2(CCNC2=O)CC1 (stereo not drawn) ?
< 0.1 µM

###

- tested system: full-length human PRMT1 isoform 1 (GST-tagged) (Homo sapiens, UniProt Q99873)
- protocol details: PRMT1 Biochemical Assay (3H-SAM Flashplate, peptide substrate)
- run parameters: single experiment or average of multiple experiments
pIC50: −log10 of the molar value.
measure: pIC50

>>> measured_number("CNCCN(C)Cc1c[nH]nc1[C@H]1CC[C@H](N(CC(C)C)C(=O)CCCOC)CC1 [Compound 249]")
7.62

[A] CNCCN(C)Cc1c[nH]nc1C1CCC2(CC1)CN(CC(C)C)C(=O)N2C (centres unmarked) [Compound 145]
[B] CCN(C(=O)CCOc1ccccc1)[C@H]1CC[C@@H](c2n[nH]cc2CN(C)CCNC)CC1 [Compound 224]
// compare: A vs B , metric pIC50, want the smaller Give the label of your selection.
A

[P] CNCCN(C)Cc1c[nH]nc1[C@H]1CC[C@]2(CCN(Cc3ccc(F)cc3)C2=O)CC1 [Compound 123]
[Q] CN(CCN)Cc1n[nH]cc1C1CCCCC1 [Compound 33]
[R] CNCCN(C)Cc1c[nH]nc1C1CCC(N(CC(C)C)C(=O)CC2CCOCC2)CC1 (centres unmarked) [Compound 114]
[S] CNCCN(C)Cc1c[nH]nc1C1CCC(C)(C)CC1 [Compound 52]
[T] CCN1C(=O)N(C)CC12CCC(c1n[nH]cc1CN(C)CCNC)CC2 (centres unmarked) [Compound 162]
Please produce an ascending ranking of these compounds based on pIC50. Hello, could you send the labels back in the order asked? Thank you.
R, T, Q, P, S

###

- tested system: full-length human PRMT6 (Flag- and His-tagged) (Homo sapiens)
- protocol details: PRMT6 Biochemical Assay (3H-SAM Flashplate, peptide substrate)
- run parameters: single experiment or average of multiple experiments; read-out: Biochemical IC50 PRMT6
Where a name gives a salt, the structure may show the parent alone.
measure: IC50 (nM)

Consider the following illustrative entries.
>>> measured_number("CNCCN(C)Cc1c[nH]nc1C1CC(C)(C)OC(C)(C)C1")
128
>>> measured_number("CCOCC1CC(c2n[nH]cc2CN(C)CCNC)CC(COCC)C1(C)C (stereo not shown)")
3730
>>> measured_number("CNCCN(C)Cc1cn(C)nc1[C@H]1CC[C@@]2(CC1)CC(C)(C)CO2 [Compound 205, hydrochloride]")
71.5
>>> measured_number("CCC(=O)N(CCOc1ccccc1)[C@H]1CC[C@H](c2n[nH]cc2CN(C)CCNC)CC1")
19.2
>>> measured_number("CNCCN(C)Cc1c[nH]nc1C1CCC(OCC(C)C)CC1 (stereo not shown)")
28.4

[A] CN(CCN)Cc1c[nH]nc1C1CCCCC1
[B] CNCCN(C)Cc1c[nH]nc1C1CC(C)OC(C)C1 (stereo not shown)
[C] CC1CCC(c2n[nH]cc2CN(C)CCN)CC1 (stereo not shown)
Please produce an ascending ranking of these molecules based on IC50. Hello, could you send the labels back in the order asked? Thank you.
C, A, B
(C: 10 nM, A: 20 nM, B: 62.9 nM)

[1] CNCCN(C)Cc1c[nH]nc1C1CCC2(CC1)CC(=O)N(Cc1ccc(OC)cc1)C2 (stereo not shown)
[2] CCN(C(=O)CC(C)C)[C@H]1CC[C@@H](c2n[nH]cc2CN(C)CCNC)CC1
Between these two entries, 1 and 2 , state which has the higher IC50. Give the label of your selection.
1
